Assay: qHTS for Agonist of gsp, the Etiologic Mutation Responsible for Fibrous Dysplasia/McCune-Albright Syndrome: qHTS; also: nearly all actives have a fitted effect of over 60% in size
Conditions: gsp mutant cells, cAMP HTRF, 30 min; series mostly up to 76.9 µM
Procedure: McCune-Albright syndrome (MAS) is a rare disease caused by somatic mutations in Gsgsp), a widely expressed protein central in signal transduction from G-coupled protein receptors (GPCRs). The disease symptoms are diverse, owing to the fact that the patients are mosaics with varying degrees of tissue involvement. […] The tissue phenotype is determined by the role of Gs in the function of a given cell, and excess Gs/cAMP signaling in that cell. […]
Hit rate of the full screen: of about 340,000 compounds, about 420 (0.12%) were called active. About 10% were inconclusive and are not listed. Calls follow the shape of the dose curve; as a rule, active = well fitted activation curve with a large enough effect; inconclusive = small, poorly fitted or top-dose-only effect, or another doubt; inactive = no such curve, though single readings can be large or run the other way; cell line not stated here. Only a selection was taken, and actives are over-represented in it overall.
API: response.call in active, inactive

> print(dat)
                                   molecule  assigned.class
1  O=C(COC(=O)CCc1c[nH]c2ccccc12)Nc1cccc(Cl)c1        inactive
2               Cc1ccc(C=O)c([B-](F)(F)F)c1        inactive
3  CCc1noc(C)c1C(=O)OCC(=O)c1ccc(NC(=O)CC(C)C)cc1        inactive
4  COc1ccc(-c2cnc3c(c2)C(=O)N([C@H](C)CO)C[C@@H](C)[C@H](CN(C)Cc2ccccc2)O3)cc1        inactive
5  COc1cccc2c1OCC(CN1CCN(C3CCCCC3)C(CCO)C1)=C2 (stereo not given)          active
6  COc1ccc(OC)c(NC(=O)C2CCCN2S(=O)(=O)c2ccc3c(c2)CC(C)N3C(C)=O)c1 (stereo not given)        inactive

Hi team, can someone confirm the assay call for OCCC1CN(Cc2ccc3nsnc3c2)CCN1C1CCCC1 (stereo not given) ?
inactive

Hi team, can someone confirm the assay call for `CCOc1ncccc1C(=O)Nc1ccc(S(=O)(=O)Nc2nc(C)cc(C)n2)cc1` ?
active

Hi team, can someone confirm the assay call for `CCOC(=O)c1cc(-c2sc(NC(=O)c3ccccc3)nc2C)n(Cc2ccccc2)n1` ?
inactive

Hi team, can someone confirm the assay call for `CCCCCCN1C[C@H](O)[C@@H](n2cc(C3CC3)nn2)C[C@@H]1c1ccc(Cl)cc1` ?
inactive

----------
assay: qHTS for Agonist of gsp, the Etiologic Mutation Responsible for Fibrous Dysplasia/McCune-Albright Syndrome: qHTS; settings: gsp mutant cells, cAMP HTRF, 30 min; series mostly up to 76.9 µM; also: nearly all actives have a fitted effect of over 60% in size
Hit rate of the full screen: of about 340,000 compounds, about 420 (0.12%) were called active. Inconclusive results (about 10%) are left out. Calls come from the whole dose curve; as a rule, active = well fitted activation curve with a large enough effect; inconclusive = small, poorly fitted or top-dose-only effect, or another doubt; inactive = no such curve, though single readings can be large or run the other way; cell line not stated here. This is one part of a sample in which actives are shown more often than they occur.
API: response.call in label 1 (active), label 0 (inactive)

Record excerpt, results attached:
> print(dat)
                                    compound  assigned.class
 1  CC(Sc1ccccc1F)C(=O)Nc1cccc(S(=O)(=O)N2CCOCC2)c1 (stereo unspecified)         label 0
 2  COc1ccc(-c2c3c(=O)n(C)c(=O)n(C)c3cn2NC(C)=O)cc1         label 0
 3  Cc1cccn2c(=O)c3cc(C#N)c(=NC(=O)c4cccnc4)n(CC4CCCO4)c3nc12 (stereo unspecified)         label 0
 4  O=C(c1ncn2c1c(=O)[nH]c1ccccc12)N1CCc2ccccc2C1         label 0
 5  COc1ccc(CN2C(=O)C(CC(=O)NCCN3CCOCC3)CC(C(=O)N(C(C)C)C(C)C)=C2C)cc1 (stereo unspecified)         label 0
 6  CSc1ncccc1C(=O)N1CCCC(Nc2ccc(F)c(F)c2)C1 (stereo unspecified)         label 0
 7  Cc1cccn2c(=O)c3cc(C#N)c(=O)n(CCCN4CCOCC4)c3nc12         label 1
 8  O=S(=O)(c1cccc(C(F)(F)F)c1)N1c2ccccc2-n2cccc2C1c1cccnc1 (stereo unspecified)         label 0
 9              CSc1ncnc2c1ncn2CCCNCC1CCCCC1         label 0
10                   O=Nc1c(O)cc(O)c2ccccc12         label 0

Next:
Hi team, can someone confirm the assay call for `COCCCn1c(C(=O)NC2CCCCC2)cc2c(=O)n3cccc(C)c3nc21` ?
label 0

----------
experiment: qHTS for Agonist of gsp, the Etiologic Mutation Responsible for Fibrous Dysplasia/McCune-Albright Syndrome: qHTS; conditions: gsp mutant cells, cAMP HTRF, 30 min; series mostly up to 76.9 µM; also: nearly all actives have a fitted effect of over 60% in size
In all, about 340,000 compounds went through this assay and about 420 (0.12%) were called active. About 10% were inconclusive and are not listed. Many of the other results were omitted from the sample, so actives are more common in it than they were.
measure: outcome

> print(dat)
                                   molecule  measure  value.measured
1         CCOc1ncccc1C(=O)Nc1ccc2c(c1)OCCO2  outcome        inactive
2  Cc1ccc(-c2ccc(CN3C(C(C)C)C(=O)N(Cc4cn(CCC5OCCO5)nn4)CCS3(=O)=O)cc2)cc1 (stereo not drawn)  outcome        inactive
3  O=C(Nc1ccc(S(=O)(=O)Nc2ncccn2)cc1)c1cncc(Br)c1  outcome        inactive

----------
assay: qHTS for Agonist of gsp, the Etiologic Mutation Responsible for Fibrous Dysplasia/McCune-Albright Syndrome: qHTS; details: gsp mutant cells, cAMP HTRF, 30 min; series mostly up to 76.9 µM; also: nearly all actives have a fitted effect of over 60% in size;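 as to activation (cAMP increase): phosphodiesterase inhibitor Ro 20-1724 added with compounds to block cAMP breakdown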
Hit rate of the full screen: of about 340,000 compounds, about 420 (0.12%) were called active. About 10% were inconclusive and are not listed. This is one part of a sample in which actives are shown more often than they occur.
Reported activation (cAMP increase) is given for each of the following compounds.

> print(dat)
                                   compound                  value.measured
1  Cn1c(=O)c2cn(-c3cccc4ccccc34)cc2n(C)c1=O  -9.96% [at 15.4 µM] (inactive)
2     CCN(CC)C(=O)c1sc2nc(-c3ccccc3)ccc2c1N  -3.88% [at 15.4 µM] (inactive)
3  C=CCn1c(SCC(=O)CC(=O)OCC)nc2cc(C(=O)N3CCC(C(N)=O)CC3)ccc2c1=O   4.18% [at 15.4 µM] (inactive)

Look up and state reported activation (cAMP increase) for `Cc1cnc(NC(=O)Cn2cnc3c2c(=O)n(C)c(=O)n3C)s1`
0.329% [at 15.4 µM] (inactive)

Look up and state reported activation (cAMP increase) for CC1C(C)N(C(=O)CCl)c2ccccc2N1C(=O)CCl (stereo not given)
-0.561% [at 15.4 µM] (inactive)

----------
test: qHTS for Agonist of gsp, the Etiologic Mutation Responsible for Fibrous Dysplasia/McCune-Albright Syndrome: qHTS; settings: gsp mutant cells, cAMP HTRF, 30 min; series mostly up to 76.9 µM; also: nearly all actives have a fitted effect of over 60% in size
The campaign covered roughly 340,000 compounds. About 420 (0.12%) were called active. Not shown: some 10% with an inconclusive outcome. The call rests on the fitted dose curve; in most records, active means well fitted activation curve with a large enough effect; inconclusive means small, poorly fitted or top-dose-only effect, or another doubt; inactive means no such curve, though single readings can be large or run the other way; cell line not stated here. Many of the other results were omitted from the sample, so actives are more common in it than they were.
API: response.call in 1 for active, -1 for inactive

Record excerpt, results attached:
> print(dat)
                                   compound  assigned.class
1  O=C(COC(=O)/C=C/c1ccc(Cl)cc1)NC1CCS(=O)(=O)C1 (stereo unspecified)              -1
2         O=C(NN=Cc1ccc2c(c1)CCC2)c1ccccc1O              -1
3  O=C(COC(=O)c1cncc(Br)c1)Nc1ccc(S(=O)(=O)N2CCOCC2)cc1              -1
4  CC1(C)OC(=O)C2=C(CC(c3ccccc3)OC2CCc2ccccc2)O1 (stereo unspecified)              -1
5  C[C@H]1Cn2cnc(C(=O)N[C@@H](Cc3c[nH]c4ccccc34)C(=O)OC(C)(C)C)c2C(=O)N1              -1

Next:
Hi team, can someone confirm the assay call for `COc1ccccc1C(=O)NC(=S)Nc1ccc(N2CCOCC2)cc1` ?
-1

----------
test: qHTS for Agonist of gsp, the Etiologic Mutation Responsible for Fibrous Dysplasia/McCune-Albright Syndrome: qHTS; settings: gsp mutant cells, cAMP HTRF, 30 min; series mostly up to 76.9 µM; also: nearly all actives have a fitted effect of over 60% in size
The campaign covered roughly 340,000 compounds. About 420 (0.12%) were called active. Inconclusive results (about 10%) are left out. The call rests on the fitted dose curve; in most records, active means well fitted activation curve with a large enough effect; inconclusive means small, poorly fitted or top-dose-only effect, or another doubt; inactive means no such curve, though single readings can be large or run the other way; cell line not stated here. What follows is part of a selection rich in actives, with near analogues and random picks from the rest.
API: response.call in YES = active, NO = inactive

> print(dat)
                                   compound  assigned.class
1      COc1cccc(N2C(=O)CN(Cc3ccccc3)C2=S)c1              NO
2       O=C(OCC(=O)N1CCCCCC1)c1cccc(Cl)c1Cl              NO
3  COC(=O)c1ccccc1N=NNc1ccc([N+](=O)[O-])cc1              NO
4  NC(=S)NN=Cc1ccc(OC(=O)COc2cc(Cl)c(Cl)cc2Cl)cn1              NO
5  COc1cccc(-n2c(=S)[nH]c3c(oc4ccccc43)c2=O)c1             YES

Hi team, can someone confirm the assay call for COCOCCn1cc(CN2CCS(=O)(=O)N(Cc3ccc(-c4ccccc4)cc3)C(CC(C)C)C2=O)nn1 (stereo not given) ?
NO

Hi team, can someone confirm the assay call for `CCOc1cc(/C=N/NC(=O)c2c(C)nc3ccc(Cl)cn23)ccc1O` ?
NO

Hi team, can someone confirm the assay call for `CC1(c2cccc(N)c2)OCCO1` ?
NO

Hi team, can someone confirm the assay call for CC1(c2cccc(Br)c2)NC(=O)N(CC(=O)NCCC2=CCCCC2)C1=O (stereo not given) ?
NO

Hi team, can someone confirm the assay call for `CCCCCC(=O)N1C[C@H](O)[C@@H](n2cc(COC(=O)c3ccccc3)nn2)C[C@@H]1c1ccc(C)cc1` ?
NO
